Biological target: Serine/threonine-protein kinase 10 (Homo sapiens)
Details: at 1 µM
assay.metric: residual activity (%)
One number for each entry, in %.

COc1cc2nccc(Oc3ccc(NC(=O)Nc4cc(C)on4)c(Cl)c3)c2cc1OC : 8
NC(=O)c1ccc(-c2nc(-c3ccc4c(c3)OCCO4)c(-c3ccccn3)[nH]2)cc1 : 65
CN(C)S(=O)(=O)c1ccc2c(c1)/C(=C/c1cc3c([nH]1)CCCC3)C(=O)N2 : 63

For each entry beneath this line, provide reported residual activity.
1. O=C(c1cc2cc(O)ccc2[nH]1)c1cc2cc(O)ccc2[nH]1
2. Nc1ncnc2[nH]nc(Nc3ccc(F)cc3)c12
3. O=C1NC(=O)c2c1c1c3ccccc3[nH]c1n1cncc21
4. O=C1Nc2ccc(Cl)cc2/C1=C/c1cc(Cl)c(O)c(Cl)c1
5. CC(C)[C@H](CO)Nc1nc(Nc2cc(N)cc(Cl)c2)c2ncn(C(C)C)c2n1
6. O=C(c1ccccc1)c1ccc(N2CCOCC2)cc1O

1. 55
2. 53
3. 70
4. 67
5. 57
6. 91

For each entry beneath this line, provide reported residual activity.
1. Cn1c2ccccc2c2c3c(c4c5ccccc5n(CCC#N)c4c21)CNC3=O
2. O=C1Cc2c([nH]c3ccc([N+](=O)[O-])cc23)-c2ccccc2N1
3. CCN(CC)CCNC(=O)c1c(C)[nH]c(/C=C2\C(=O)Nc3ccc(Cl)cc32)c1C
4. O=C1NC(=O)C(c2cn(CCCO)c3ncccc23)=C1c1cnccn1

1: 21; 2: 102; 3: 15; 4: 94

###

Biological target: Cyclin-dependent kinase 2/cyclin A (Homo sapiens) (UniProt P24941+P20248+P78396)
Settings: at 10 µM
Answer not fulfilled if residual activity is under 80%, and fulfilled if it is 80% or more.

As a guide, the following entries are already answered.
CC(C)c1nn(-c2c(Cl)cccc2Cl)c2nc(Cc3ccc(OCCO)cc3)[nH]c(=O)c12 : not fulfilled
O=C(NC(NC(=S)Nc1ccc(F)c([N+](=O)[O-])c1)C(Cl)(Cl)Cl)C(c1ccccc1)c1ccccc1 (configuration not stated) : fulfilled
Nc1ncnc2[nH]nc(Nc3ccc(F)cc3)c12 : not fulfilled

Would you say N#C/C(=C\c1ccc(O)c(O)c1)C(=O)NCc1ccccc1 shows residual activity at minimum 80%?
fulfilled

Would you say O=C(O)/C=C/c1cc(Br)c(Br)c(Br)c1Br shows residual activity at minimum 80%?
not fulfilled

Would you say O=C1NC(=O)c2c1c1c3ccccc3[nH]c1n1cncc21 shows residual activity at minimum 80%?
not fulfilled

Would you say Nc1ncnc2c1c(-c1ccc(Oc3ccccc3)cc1)cn2C1CCCC1 shows residual activity at minimum 80%?
not fulfilled

Would you say N#Cc1c(NC(=O)c2cccc3ccccc23)sc2c1CCCC2 shows residual activity at minimum 80%?
fulfilled

Would you say Cn1c2ccccc2c2c3c(c4c5ccccc5n(CCC#N)c4c21)CNC3=O shows residual activity at minimum 80%?
not fulfilled

Would you say CC(C)(C)n1nc(Cc2cccc3ccccc23)c2c(N)ncnc21 shows residual activity at minimum 80%?
not fulfilled

Would you say CCOC(=O)c1c(C)[nH]c(/C=C2\C(=O)Nc3ccccc32)c1C shows residual activity at minimum 80%?
fulfilled

Would you say NCCNc1ncc(C(N)=O)c(Nc2cccc(C(F)(F)F)c2)n1 shows residual activity at minimum 80%?
not fulfilled

Would you say COc1ccc(Cl)cc1NC(=O)Nc1cc(C)nc2ccccc12 shows residual activity at minimum 80%?
fulfilled

Would you say O=C1NC(=O)C(c2cn(CCCO)c3ncccc23)=C1c1cnccn1 shows residual activity at minimum 80%?
not fulfilled

Would you say Oc1cccc(-c2nc(N3CCOCC3)c3oc4ncccc4c3n2)c1 shows residual activity at minimum 80%?
fulfilled

###

Molecular target: Mitogen-activated protein kinase kinase kinase 7 (Homo sapiens) (UniProt O43318)
Sequence (whole entry): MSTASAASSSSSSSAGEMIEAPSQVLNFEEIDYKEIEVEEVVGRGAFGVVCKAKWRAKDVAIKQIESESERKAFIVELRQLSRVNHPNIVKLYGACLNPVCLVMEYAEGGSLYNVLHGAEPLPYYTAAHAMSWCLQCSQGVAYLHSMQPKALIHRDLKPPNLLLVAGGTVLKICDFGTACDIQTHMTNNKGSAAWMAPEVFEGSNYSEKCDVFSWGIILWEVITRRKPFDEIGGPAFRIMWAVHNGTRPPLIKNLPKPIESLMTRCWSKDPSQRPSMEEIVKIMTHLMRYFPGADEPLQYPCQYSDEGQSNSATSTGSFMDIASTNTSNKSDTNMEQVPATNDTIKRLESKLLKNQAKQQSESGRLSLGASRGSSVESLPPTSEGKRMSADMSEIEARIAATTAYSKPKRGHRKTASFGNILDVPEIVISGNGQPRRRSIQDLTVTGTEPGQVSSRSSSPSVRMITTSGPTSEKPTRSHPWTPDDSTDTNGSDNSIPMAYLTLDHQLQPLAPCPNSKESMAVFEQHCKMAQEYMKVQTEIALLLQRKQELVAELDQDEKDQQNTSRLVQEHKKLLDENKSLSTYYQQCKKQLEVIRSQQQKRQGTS
Settings: at 10 µM
assay.metric: residual activity (%)
Answers are plain numbers, in %.

Before answering, review these 4 worked examples.
O=C1NC(=O)C(c2cn(CCCn3ccnc3)c3ccccc23)=C1Nc1ccccc1 : 66
O=C1NC(=O)C(c2cn(CCCO)c3ncccc23)=C1c1cnccn1 : 81
O=C1Nc2ccccc2/C1=C\c1c(Cl)[nH]c2ccccc12 : 77
COc1cc2nccc(Oc3ccc(NC(=S)NC(=O)c4ccccc4C)cc3)c2cc1OC : 87

--- query ---
I'd like to know its residual activity. The compound in question is CC(C)c1nn(-c2c(Cl)cccc2Cl)c2nc(Cc3ccc(OCCO)cc3)[nH]c(=O)c12
63

###

Target: Rhodopsin kinase GRK7 (Homo sapiens) (UniProt Q8WTQ7)
Sequence (whole entry): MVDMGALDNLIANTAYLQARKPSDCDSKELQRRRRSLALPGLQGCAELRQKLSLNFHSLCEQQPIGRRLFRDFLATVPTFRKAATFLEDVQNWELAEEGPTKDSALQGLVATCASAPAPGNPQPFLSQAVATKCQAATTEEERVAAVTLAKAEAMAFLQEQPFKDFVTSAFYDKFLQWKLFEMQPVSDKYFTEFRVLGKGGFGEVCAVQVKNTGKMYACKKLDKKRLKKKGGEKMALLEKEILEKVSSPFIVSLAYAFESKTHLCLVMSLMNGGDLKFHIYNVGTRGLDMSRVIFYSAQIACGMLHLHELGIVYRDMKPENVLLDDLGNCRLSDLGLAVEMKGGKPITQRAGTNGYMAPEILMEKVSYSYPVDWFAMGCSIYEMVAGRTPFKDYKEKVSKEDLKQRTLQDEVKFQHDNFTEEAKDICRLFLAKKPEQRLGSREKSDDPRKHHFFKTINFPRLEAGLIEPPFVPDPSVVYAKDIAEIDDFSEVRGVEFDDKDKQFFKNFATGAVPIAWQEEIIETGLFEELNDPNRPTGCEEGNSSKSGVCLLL
Details: at 1 µM
Would you kindly list residual activity for each of these compounds?
Give bare numbers, in %.

Before answering, review these 6 worked examples.
CCCCc1c(-c2ccc(O)cc2)[nH]c2nccnc12 : 86
Cn1sc(=O)n(Cc2ccccc2)c1=O : 89
COc1ccc(Cl)cc1NC(=O)Nc1cc(C)nc2ccccc12 : 99
O=C(CCCc1ccc(-c2ccccc2F)cc1)Nc1ccc(O)cc1 : 104
O=c1cc(N2CCNCC2)oc2c(-c3ccccc3)cccc12 : 95
O=C(O)/C=C/c1cc(Br)c(Br)c(Br)c1Br : 105

For each entry beneath this line, provide reported residual activity.
1. CC(C)(C)n1nc(Cc2cccc3ccccc23)c2c(N)ncnc21
2. COc1cc2ncnc(Nc3cccc(Cl)c3)c2cc1OC
3. NC(=O)Nc1sc(-c2ccc(F)cc2)cc1C(N)=O
4. O=C1NC(=O)C(c2cn(CCCn3ccnc3)c3ccccc23)=C1Nc1ccccc1
5. COc1cc2nccc(Oc3ccc(NC(=O)Nc4cc(C)on4)c(Cl)c3)c2cc1OC
6. CC(C)[C@H](CO)Nc1nc(Nc2cc(N)cc(Cl)c2)c2ncn(C(C)C)c2n1

1. 98
2. 106
3. 67
4. 75
5. 105
6. 58

###

Biological target: Macrophage-stimulating protein receptor (Homo sapiens)
Conditions: at 10 µM
Would you kindly list residual activity for each of these molecules?
Numbers only, in %.

Before answering, review these 5 worked examples.
CSc1nc(-c2ccc(F)cc2)c(-c2ccnc(NC(C)c3ccccc3)c2)[nH]1 (stereo unspecified) : 83
CC(C)c1nn(-c2c(Cl)cccc2Cl)c2nc(Cc3ccc(OCCO)cc3)[nH]c(=O)c12 : 92
NC(=O)c1ccc(-c2nc(-c3ccc4c(c3)OCCO4)c(-c3ccccn3)[nH]2)cc1 : 86
O=c1cc(N2CCNCC2)oc2c(-c3ccccc3)cccc12 : 58
O=C1Nc2ccc(Cl)cc2/C1=C/c1cc(Cl)c(O)c(Cl)c1 : 57

For each entry beneath this line, provide reported residual activity.
1. CN(C)S(=O)(=O)c1ccc2c(c1)/C(=C/c1cc3c([nH]1)CCCC3)C(=O)N2
2. COc1cc2ncnc(Nc3cccc(Cl)c3)c2cc1OC
3. Cn1sc(=O)n(Cc2ccccc2)c1=O
4. O=c1c(-c2ccc(F)cc2)c(-c2ccncc2)[nH]n1-c1ccc(Cl)cc1

1: 83; 2: 83; 3: 75; 4: 80

For each entry beneath this line, provide reported residual activity.
1. O=C1NC(=O)C(c2cn(CCCO)c3ncccc23)=C1c1cnccn1
2. O=C1Cc2c([nH]c3ccc(Br)cc23)-c2ccccc2N1

58
77
